Values from patent US20250206837A1

Quick list: oxLDL uptake IC50 (nM), F293/hCD36 per entry.
Biological target: full-length human CD36-Flag overexpressed on stable F293 cells (human, UniProt P16671 2-472)
Sequence (P16671 2-472): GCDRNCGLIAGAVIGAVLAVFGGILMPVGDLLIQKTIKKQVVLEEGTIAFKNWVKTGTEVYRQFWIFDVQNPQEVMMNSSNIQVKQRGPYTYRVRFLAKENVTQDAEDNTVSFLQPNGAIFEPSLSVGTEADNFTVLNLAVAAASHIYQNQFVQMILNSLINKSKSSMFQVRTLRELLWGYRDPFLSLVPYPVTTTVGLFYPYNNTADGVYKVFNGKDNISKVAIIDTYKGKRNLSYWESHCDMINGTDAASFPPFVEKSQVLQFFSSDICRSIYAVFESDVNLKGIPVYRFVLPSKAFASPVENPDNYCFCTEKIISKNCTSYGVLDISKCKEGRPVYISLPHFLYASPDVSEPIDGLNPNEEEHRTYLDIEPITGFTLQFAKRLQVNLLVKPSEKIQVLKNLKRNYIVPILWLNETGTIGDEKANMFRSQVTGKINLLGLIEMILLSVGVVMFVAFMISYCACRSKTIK
Assay: cell-based or functional assay
Report only the number, with the unit nM understood.

I'd like to know its oxLDL uptake IC50 (nM), F293/hCD36. The binder in question is 117_57E (antibody, V domains shown, full-length IgG, human kappa) VH: EVQLVESGGGLVQPGGSLRLSCAASGFTISSFGIHWVRQAPGKGLEWVAWIAPYGGETYYADSVKGRFTISADTSKNTAYLQMNSLRAEDTAVYYCARSFFGYFDYWGQGTLVTVSS VL: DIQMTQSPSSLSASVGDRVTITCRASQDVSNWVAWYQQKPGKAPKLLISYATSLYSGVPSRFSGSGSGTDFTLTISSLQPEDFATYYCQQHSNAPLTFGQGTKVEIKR
0.419

Here is another binder to look at.
Recorded oxLDL uptake IC50 (nM), F293/hCD36 of 12P109 (antibody, human IgG1, kappa, N297A, V domains shown, Full-length human IgG1-N297A, kappa; also called 12P109 (IgG1)) VH: EVQLVESGGGLVQPGGSLRLSCAASGFTISSFGIHWVRQAPGKGLEWVAWIAPYGGYTYYADSVKGRFTISADTSKNTAYLQMNSLRAEDTAVYYCARSFFGYFDYWGQGTLVTVSS VL: DIQMTQSPSSLSASVGDRVTITCRASQDVSNWVAWYQQKPGKAPKLLISTSTSLYSGVPSRFSGSGSGTDFTLTISSLQPEDFATYYCQQYYTLPFTFGQGTKVEIKR , please.
0.401
